Tested on: Plasmopara viticola
Assay: Test 3: control effect against grape downy mildew
Format: in vivo
Details: control value vs untreated section
outcome-measure: control value (Test 3)
Just the number.

Given item CC1OC(c2csc(C3CCN(C(=O)Cn4nc(C(F)F)cc4C(F)F)CC3)n2)OCc2ccccc21 (mixture of isomers) [Compound 1-75] , the value recorded as its control value (Test 3) is 100

What the record says about O=C(Cn1nc(C(F)(F)F)cc1C(F)(F)F)N1CCC(c2nc(C3OCc4cccc(OC(F)F)c4CO3)cs2)CC1 (stereo not drawn) [Compound 1-137] : control value (Test 3) is 100

Lab book: control value (Test 3) of CS(=O)(=O)Oc1ccc(Cl)c2c1COC(c1csc(C3CCN(C(=O)Cc4cc(Cl)ccc4Cl)CC3)n1)OC2 (stereo not drawn) [Compound 2-41] noted as 100
